// reported OD450 nm (PCSK9 bound to LDLR) for each item listed
Target: T1, recombinant human PCSK9 protein, His-tagged (Immunogen A, hPCSK9-His) (human, UniProt Q8NBP7 31-692, limits assumed, biotin-labelled in the ELISA and blocking assays (Biotin labeling kit))
T1 construct: also called human PCSK9-His; recombinant hPCSK9-His; not shown: His tag
Test: blocking ELISA, biotin-hPCSK9-His on coated LDLR ECD-His; antibody 0.06 nM
metric: OD450 nm (PCSK9 bound to LDLR) (OD450 nm)

INSERT INTO measurements (binder, value_measured) VALUES
  ('74C10A8, chimeric anti-PCSK9 mAb purified from hybridoma (antibody, V domains shown, From Harbour H2L2 mice: human variable regions, rat constant regions) VH: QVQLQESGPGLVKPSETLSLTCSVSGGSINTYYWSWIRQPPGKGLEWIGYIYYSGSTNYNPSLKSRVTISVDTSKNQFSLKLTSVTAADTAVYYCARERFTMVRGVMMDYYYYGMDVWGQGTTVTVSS VL: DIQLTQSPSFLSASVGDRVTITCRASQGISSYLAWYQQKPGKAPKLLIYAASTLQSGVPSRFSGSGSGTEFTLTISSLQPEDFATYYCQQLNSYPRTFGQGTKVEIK', 1.3),
  ('76A1B11, chimeric anti-PCSK9 mAb purified from hybridoma (antibody, V domains shown, From Harbour H2L2 mice: human variable regions, rat constant regions) VH: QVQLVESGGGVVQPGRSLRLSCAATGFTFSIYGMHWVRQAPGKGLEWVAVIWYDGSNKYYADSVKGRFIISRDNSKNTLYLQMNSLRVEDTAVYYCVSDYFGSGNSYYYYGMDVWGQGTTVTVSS VL: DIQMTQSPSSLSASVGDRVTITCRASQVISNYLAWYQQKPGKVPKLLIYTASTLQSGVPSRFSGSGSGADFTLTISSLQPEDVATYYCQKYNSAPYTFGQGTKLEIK', 1.18),
  ('103C11E8, chimeric anti-PCSK9 mAb purified from hybridoma (antibody, V domains shown, From Harbour H2L2 mice: human variable regions, rat constant regions) VH: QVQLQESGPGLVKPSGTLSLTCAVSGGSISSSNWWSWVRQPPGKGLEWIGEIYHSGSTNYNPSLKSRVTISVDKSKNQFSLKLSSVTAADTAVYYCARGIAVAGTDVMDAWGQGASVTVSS VL: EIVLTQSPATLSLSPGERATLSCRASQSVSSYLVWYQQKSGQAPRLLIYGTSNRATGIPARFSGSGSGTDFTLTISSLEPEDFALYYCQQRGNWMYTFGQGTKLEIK', 0.96);
